# Assay Protocol: Tanguay_ZF_120hpf_SWIM_legacy: (Legacy) Oregon State University Tanguay Lab 120 Hour Post-fertilization zebrafish Assay for Swim Bladder Malformation (AID 2283654);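 further: swim bladder malformation in each larva scored yes or no under brightfield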
Inconclusive results are not listed. Active and inactive are the calls of the source. How the source made its calls: active means hit-call score of the fitted dose curve at least 0.9, where 1 is the maximum; inconclusive means response in the unintended direction; inactive means score below 0.9.
Reported Endpoint: AC50

Completed entries (count: 10):
molecule=CCSC(=O)N(CC)C1CCCCC1 reported_endpoint=AC50 reported=inactive
molecule=COc1ccc(O)c(C(C)(C)C)c1 reported_endpoint=AC50 reported=inactive
molecule=O=C(O)C(F)(F)C(F)(F)C(F)(F)C(F)(F)C(F)(F)F reported_endpoint=AC50 reported=inactive
molecule=C[C@]12CCC(=O)C=C1CC[C@@H]1[C@@H]2CC[C@]2(C)C(=O)CC[C@@H]12 reported_endpoint=AC50 reported=inactive
molecule=Nn1cnnc1 reported_endpoint=AC50 reported=inactive
molecule=Oc1ccc(C(c2ccc(O)cc2)(C(F)(F)F)C(F)(F)F)cc1 reported_endpoint=AC50 reported=inactive
molecule=Cc1cccc([N+](=O)[O-])c1 reported_endpoint=AC50 reported=inactive
molecule=O=S(=O)(O)C(F)(F)C(F)(F)C(F)(F)C(F)(F)C(F)(F)C(F)(F)F reported_endpoint=AC50 reported=inactive
molecule=c1ccc(-c2ccccc2)cc1 reported_endpoint=AC50 reported=inactive
molecule=CCCCCCCCOC(=O)c1ccccc1C(=O)OCCCCCCCC reported_endpoint=AC50 reported=inactive

Suppose we examine the molecule CCCCCCCCCc1ccc(O)cc1 ; what AC50 value has been reported?
inactive

Now try ClC(Cl)=C(c1ccc(Cl)cc1)c1ccc(Cl)cc1 .
inactive

Now try O=NN(c1ccccc1)c1ccccc1 .
inactive

Now try Oc1ccc(Cl)cc1Cl .
inactive

Now try CC(C)C(=O)OCC(C)(C)C(OC(=O)C(C)C)C(C)C (centres undefined) .
inactive

###

# Assay Protocol: BSK_3C_uPAR: BioMAP Diversity Plus: 3C Assay for Urokinase-type plasminogen activator receptor (uPAR) Biomarker Activity (AID 2282998)
# Reported Conditions: BioMAP 3C HUVEC, uPAR biomarker ELISA; actives raise or lower the signal
Calls of active or inactive are those of the source. How the source made its calls: active means hit-call score of the fitted dose curve at least 0.9, where 1 is the maximum; inactive means score below 0.9.
Allowed answers: active, inactive

Tell me the recorded outcome of this test for Cc1ccc(O)c(C)c1 .
inactive

Now try Oc1ccc(C(c2ccc(O)cc2)(C(F)(F)F)C(F)(F)F)cc1 .
active

Now try Cc1ccccc1O .
inactive

Now try COc1ccc(O)c(C(C)(C)C)c1 .
inactive

Now try O=C(N[C@H]1CN2CCC1CC2)c1cc2ccoc2cn1 .
inactive

Now try ClC1=C(Cl)[C@]2(Cl)[C@@H]3[C@@H]4C[C@@H]([C@H]5O[C@@H]45)[C@@H]3[C@@]1(Cl)C2(Cl)Cl .
inactive

Now try Cc1cc(-c2ccc(N)c(C)c2)ccc1N .
inactive

Now try N#Cc1ccc(N(CC(N)=O)CC(F)(F)F)cc1C(F)(F)F .
inactive

Now try C[C@]12CCC(=O)C=C1CC[C@@H]1[C@@H]2CC[C@]2(C)C(=O)CC[C@@H]12 .
inactive

Now try CCCCCCCCCc1ccc(O)cc1 .
active

Now try CCOP(=S)(OCC)SCSC(C)(C)C .
inactive

Now try ClC(Cl)=C(c1ccc(Cl)cc1)c1ccc(Cl)cc1 .
active

Now try COS(=O)(=O)OC .
inactive

Now try O=C(O)C(F)(F)C(F)(F)C(F)(F)C(F)(F)C(F)(F)F .
inactive

Now try C=CC(=O)NCNC(=O)C=C .
inactive

Now try CC(C)C(=O)OCC(C)(C)C(OC(=O)C(C)C)C(C)C (configuration not stated) .
inactive

Now try Cc1cccc([N+](=O)[O-])c1 .
inactive

Now try CCSC(=O)N(CC)C1CCCCC1 .
inactive

Now try CCCCCCOC(=O)c1ccccc1C(=O)OCCCCCC .
inactive

Now try ClC1=C(Cl)[C@]2(Cl)[C@@H]3[C@@H](Cl)[C@H]4O[C@H]4[C@@H]3C1(Cl)C2(Cl)Cl .
inactive

Now try O=S(=O)(O)C(F)(F)C(F)(F)C(F)(F)C(F)(F)C(F)(F)C(F)(F)F .
inactive

Now try CN(C)c1nc(=O)n(C2CCCCC2)c(=O)n1C .
inactive

Now try Sc1ccccc1 .
inactive

Now try CCC(C)(CC)c1cc(NC(=O)c2c(OC)cccc2OC)on1 .
inactive

Now try CN(C)CCO .
inactive

Now try Clc1ccc(C(Cl)(Cl)Cl)cc1 .
inactive

Now try CCOCCOC(C)=O .
inactive

###

# Read-out: Intercellular Adhesion Molecule 1 (ICAM1), ICAM1 (gene 3383)
# Assay Protocol: BSK_3C_ICAM1: BioMAP Diversity Plus: 3C Assay for Intercellular Adhesion Molecule 1 (ICAM1) Biomarker Activity (AID 2283003)
# Reported Conditions: primary human endothelial cells (HUVEC); actives raise or lower the signal
Calls of active or inactive are those of the source. How the source made its calls: active means hit-call score of the fitted dose curve at least 0.9, where 1 is the maximum; inactive means score below 0.9.
Allowed answers: active, inactive

Tell me the recorded outcome of this test for COS(=O)(=O)OC .
inactive

Now try CC(C)(c1ccccc1)c1ccc(O)cc1 .
active

Now try O=C(NC(=O)c1cc(F)c(F)cc1Cl)Nc1cc(F)ccc1N1CCC(C(=O)O)CC1 .
inactive

Now try O=S(=O)(O)C(F)(F)C(F)(F)C(F)(F)C(F)(F)F .
inactive

Now try ClC1=C(Cl)[C@]2(Cl)[C@@H]3[C@@H]4C[C@@H]([C@H]5O[C@@H]45)[C@@H]3[C@@]1(Cl)C2(Cl)Cl .
inactive

Now try CN(C)c1nc(=O)n(C2CCCCC2)c(=O)n1C .
inactive

Now try CC(C)C(=O)OCC(C)(C)C(OC(=O)C(C)C)C(C)C (centres undefined) .
inactive

Now try O=C(O)C(F)(F)C(F)(F)C(F)(F)C(F)(F)C(F)(F)C(F)(F)C(F)(F)C(F)(F)F .
inactive

Now try CN(C)CCO .
inactive

Now try c1cc2ccc3cccc4ccc(c1)c2c34 .
inactive

Now try Cc1cccc([N+](=O)[O-])c1 .
inactive

Now try N#Cc1ccc(N(CC(N)=O)CC(F)(F)F)cc1C(F)(F)F .
inactive

Now try c1ccc(-c2ccccc2)cc1 .
inactive

Now try ClC1=C(Cl)[C@]2(Cl)[C@@H]3[C@H]4C[C@H]([C@@H]5O[C@H]45)[C@@H]3[C@@]1(Cl)C2(Cl)Cl .
inactive

Now try CCOCCOC(C)=O .
inactive

Now try Cc1cccc(C)c1N .
inactive

Now try O=S(=O)(O)C(F)(F)C(F)(F)C(F)(F)C(F)(F)C(F)(F)C(F)(F)F .
inactive

Now try O=C(NC(=O)c1c(F)cccc1F)Nc1cc(Cl)c(OC(F)(F)C(F)F)c(Cl)c1 .
inactive

Now try CCC(C)(CC)c1cc(NC(=O)c2c(OC)cccc2OC)on1 .
inactive

Now try C=CC(N)=O .
inactive

Now try Cc1cc(-c2ccc(N)c(C)c2)ccc1N .
inactive

Now try CC(c1ccc(O)cc1)(c1ccc(O)cc1)c1ccc(O)cc1 .
inactive

Now try C1CC2OC2CC1C1CO1 (centres undefined) .
inactive

Now try CCCN(CCC)N=O .
inactive

###

# Read-out: CYP2E1 (gene 1571)
# Assay Protocol: LTEA_HepaRG_CYP2E1: Life Technologies and Expression Analysis (LTEA) Assay for CYP2E1 using HepaRG (AID 2283485)
# Reported Conditions: mRNA level, 48 h; actives raise or lower the signal
The source made the active and inactive calls. How the source made its calls: active means hit-call score of the fitted dose curve at least 0.9, where 1 is the maximum; inactive means score below 0.9.
Allowed answers: active, inactive

Tell me the recorded outcome of this test for CC(C)C(=O)OCC(C)(C)C(OC(=O)C(C)C)C(C)C (stereo unspecified) .
inactive

Now try CCC(C)(c1ccc(O)cc1)c1ccc(O)cc1 .
inactive

Now try ClC(Cl)=C(c1ccc(Cl)cc1)c1ccc(Cl)cc1 .
active

Now try C=CC(=O)NCNC(=O)C=C .
active

Now try O=C(N[C@H]1CN2CCC1CC2)c1cc2ccoc2cn1 .
inactive

Now try CC#Cc1cc(C)nc(Nc2ccccc2)n1 .
active

Now try c1cc2ccc3cccc4ccc(c1)c2c34 .
active

Now try Cc1cccc(C)c1N .
inactive

Now try C[C@]12CCC(=O)C=C1CC[C@@H]1[C@@H]2CC[C@@]2(C)[C@H]1CC[C@]2(C)O .
active

Now try CCC(C)(CC)c1cc(NC(=O)c2c(OC)cccc2OC)on1 .
active

Now try CCOCCOC(C)=O .
inactive

Now try O=C(NC(=O)c1cc(F)c(F)cc1Cl)Nc1cc(F)ccc1N1CCC(C(=O)O)CC1 .
active

Now try COc1ccc(O)c(C(C)(C)C)c1 .
inactive

Now try COS(=O)(=O)OC .
inactive

Now try CN(C)c1nc(=O)n(C2CCCCC2)c(=O)n1C .
inactive

Now try CCCCCCCCOC(=O)c1ccccc1C(=O)OCCCCCCCC .
inactive

Now try Cc1ccccc1O .
inactive

Now try CCC(=O)O[C@H]1CC[C@H]2[C@@H]3CCC4=CC(=O)CC[C@]4(C)[C@H]3CC[C@]12C .
active

Now try Cc1ccc(O)c(C)c1 .
inactive

Now try Clc1ccc(Cl)cc1 .
inactive

Now try CO/C=C(/C(=O)OC)c1ccccc1COc1cccc(C(F)(F)F)n1 .
active

Now try Clc1ccc(C(Cl)(Cl)Cl)cc1 .
inactive

Now try CCOP(=S)(OCC)SCSC(C)(C)C .
active

Now try CCCCCCCCCC[N+](C)(C)CCCCCCCCCC .
inactive

Now try c1ccc(-c2ccccc2)cc1 .
inactive

Now try CC(c1ccc(O)cc1)(c1ccc(O)cc1)c1ccc(O)cc1 .
active

Now try Cc1ccccc1CO[C@@H]1C[C@@]2(C(C)C)CC[C@]1(C)O2 .
active

Now try N#Cc1ccc(N(CC(N)=O)CC(F)(F)F)cc1C(F)(F)F .
active

Now try Nn1cnnc1 .
inactive

Now try Cc1cc(O)ccc1Cl .
inactive

Now try Clc1ccc(C(c2ccccc2Cl)C(Cl)(Cl)Cl)cc1 (stereo unspecified) .
active

Now try O=C(O)C(F)(F)C(F)(F)C(F)(F)C(F)(F)C(F)(F)F .
inactive

Now try ClC1=C(Cl)[C@]2(Cl)[C@@H]3[C@H]4C[C@H]([C@@H]5O[C@H]45)[C@@H]3[C@@]1(Cl)C2(Cl)Cl .
active

Now try CN(C)CCO .
inactive

Now try C1CC2OC2CC1C1CO1 (stereo unspecified) .
inactive

Now try CC1=C2C[C@H]3[C@@H](CC=C4C[C@@H](O)CC[C@@]43C)[C@@H]2CC[C@]12O[C@@H]1C[C@H](C)CN[C@H]1[C@H]2C .
inactive

Source listed as PubChem BioAssay (EPA / NIEHS).
